Tested on: SK-OV-3
Assay: Antiproliferative activity against human SKOV3 cells
Type: functional, cell-based
MEASUREMENT TYPE: IC50 (nM)
The reply should be a number in nM, with the unit left off.

Noted for `CCCCCNCc1ccc2c(c1)C(=O)c1nccnc1C2=O` : its IC50 reads 400

---

Assay: Inhibition of Marthasterias glacialis oocyte CDK1/cyclin B using histone as substrate in presence of [gamma32P]ATP after 10 mins by scintillation counting method
MEASUREMENT TYPE: IC50
# output: number + unit

Noted for `Nc1n[nH]c2nc3ccccc3nc12` : its IC50 reads 600 nM
